src = paper PMC8133002

System: H358
Protocol: Cytotoxicity IC50 against H358 cells
Format: cell-based
Cond: Homo sapiens, NCI-H358
Measured property: IC50 (nM)
Respond numerically; units are nM and should not be typed.

Prompt line: Could you share which IC50 value was measured for COC(=O)Nc1nc2ccc(C(=O)c3cccs3)cc2[nH]1 ?
Response line: 1000
